# Test system: OVCAR-3 cells
# assaySummary: In vitro anti-proliferative activity assay in cancer cell line OVCAR-3 (CellTiter-Glo, 4- or 7-day)
# Type: cell-based
# conditionParameters: Homo sapiens, OVCAR-3, 168 h, 7-day assay; read-out: OVCAR-3 cellular antiproliferation assay IC50
List of IC50 values.

Study these solved cases before continuing.
{"columns": ["molecule", "assayedTarget", "IC50"],
 "data": [
  ["Cc1cc(NC(=O)c2ccc(NS(=O)(=O)CCO)cc2N2CC[C@@]3(C(F)F)C[C@H]3C2)nc(OC[C@@H](O)C(F)(F)F)n1", "OVCAR-3 cells", "> 1000 nM"],
  ["Cc1cc(NC(=O)c2ccc(NS(=O)(=O)[C@H](C)CO)cc2N2CC[Si](C)(C)CC2)nc(N2CCC(F)(F)CC2)n1", "OVCAR-3 cells", "< 100 nM"],
  ["CC(CO)S(=O)(=O)Nc1ccc(C(=O)Nc2cccc(OCCC(F)(F)F)n2)c(N2CC[Si](C)(C)CC2)c1 (stereo not shown)", "OVCAR-3 cells", "100 to 500 nM"],
  ["C[Si]1(C)CCN(c2cc(NS(=O)(=O)CCO)ccc2NC(=O)c2ccnc(OCCC(F)(F)F)n2)CC1", "OVCAR-3 cells", "500 to 1000 nM"],
  ["Cc1cc(NC(=O)c2ccc(NS(=O)(=O)CCO)cc2N2CC[Si](C)(C)CC2)nc(N2CCOC3(CC3)C2)n1", "OVCAR-3 cells", "< 100 nM"],
  ["O=C(Nc1ccnc(N2CCC(F)(F)CC2)n1)c1c(F)cc(NS(=O)(=O)CCO)cc1N1CC[C@@]2(C(F)F)C[C@H]2C1", "OVCAR-3 cells", "< 100 nM"]
]}

query: Reported IC50, molecule C[Si]1(C)CCN(c2cc(NS(=O)(=O)CCO)ccc2C(=O)Nc2cccc(OC[C@@H](O)C(F)(F)F)n2)CC1 : ____
result: < 100 nM

query: Same thing, different molecule: Cc1cc(NC(=O)c2ccc(NS(=O)(=O)NCCO)cc2N2CC[Si](C)(C)CC2)nc(N2CCC(F)(F)CC2)n1
result: 100 to 500 nM

query: Same thing, different molecule: Cc1cc(NC(=O)c2ccc(NS(=O)(=O)CCO)cc2N2CC[Si](C)(C)CC2)nc(N2CCOC(F)(F)C2)n1
result: 100 to 500 nM

query: Same thing, different molecule: Cc1cc(NC(=O)c2ccc(NS(=O)(=O)CCO)cc2N2CC[C@@]3(C(F)F)C[C@H]3C2)nc(N2CCC(F)(F)CC2)n1
result: 100 to 500 nM
